# STUDY_SYSTEM: T1, HEK293/mPRLR (Mus musculus, UniProt Q08501)
# T1 construct: HA; expressed in transfected cells; host or cells: HEK293
# T1 sequence (Q08501 20-608): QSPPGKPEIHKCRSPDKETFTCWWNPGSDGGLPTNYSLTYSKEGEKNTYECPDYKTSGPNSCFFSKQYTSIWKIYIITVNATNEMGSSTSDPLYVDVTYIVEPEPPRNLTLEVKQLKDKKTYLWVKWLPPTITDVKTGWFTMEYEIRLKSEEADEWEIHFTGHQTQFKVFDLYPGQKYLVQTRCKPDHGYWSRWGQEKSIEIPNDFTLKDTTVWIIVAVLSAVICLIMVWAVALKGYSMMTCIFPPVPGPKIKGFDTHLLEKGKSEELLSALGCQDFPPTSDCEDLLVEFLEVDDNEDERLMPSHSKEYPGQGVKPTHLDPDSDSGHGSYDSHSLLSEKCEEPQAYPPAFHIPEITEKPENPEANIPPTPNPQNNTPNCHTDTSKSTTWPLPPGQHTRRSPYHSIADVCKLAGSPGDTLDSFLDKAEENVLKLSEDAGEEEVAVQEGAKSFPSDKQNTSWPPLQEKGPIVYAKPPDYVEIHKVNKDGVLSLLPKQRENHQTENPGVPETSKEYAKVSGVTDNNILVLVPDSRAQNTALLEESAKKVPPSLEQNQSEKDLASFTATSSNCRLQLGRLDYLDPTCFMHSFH
# TEST_PROTOCOL: FACS cell surface binding
ATTRIBUTE_MEASURED: FACS Cell Binding (Fold Above Background)
Please give the number followed by its unit.

Q: Recorded FACS Cell Binding (Fold Above Background) of H1H6803P: anti-PRLR antibody, human IgG1 Fc; HCVR/LCVR SEQ ID NOs 226/234 (antibody, V domains shown, human IgG1 Fc) VH: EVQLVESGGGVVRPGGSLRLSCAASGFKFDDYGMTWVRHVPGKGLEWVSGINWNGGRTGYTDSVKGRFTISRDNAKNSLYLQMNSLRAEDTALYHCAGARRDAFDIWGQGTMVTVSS VL: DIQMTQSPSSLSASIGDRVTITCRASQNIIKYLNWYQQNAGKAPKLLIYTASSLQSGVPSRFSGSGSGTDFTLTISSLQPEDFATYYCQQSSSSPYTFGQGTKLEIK , please.
Result: 1 Fold Above Background
